System: Vero E6 infected with SARS-CoV-2
Experiment: SARS-CoV-2 infection rate relative to infected DMSO; higher = more infection, active = 60 or less
Conditions: 24 h
Give measured SARS-CoV-2 infection rate for each item. Keep answers brief.
Supply the numeric figure in %, leaving out any unit text.

I am curious: what SARS-CoV-2 infection rate value has been reported for Cc1cc(OCC(=O)O)cc(C)c1Cc1ccc(O)c(C(C)C)c1 [sobetirome] (10 µM) ?
103

Request the reported SARS-CoV-2 infection rate associated with COC(=O)c1ccc2c(c1)nc(NC(=O)c1ccccc1)n2CCCc1ccccc1 (10 µM)
94.5

Which measured SARS-CoV-2 infection rate value corresponds to CC[C@@H]1C(=O)OC[C@@H]1Cc1cncn1C [pilocarpine] (10 µM) ?
110

For the compound C=CC(=O)Nc1cc(Nc2nccc(-c3cn(C)c4ccccc34)n2)c(OC)cc1N(C)CCN(C)C [osimertinib] (10 µM) , what SARS-CoV-2 infection rate is on record?
110
